Measured values drawn from the Kinase Knowledgebase extract (Sharma et al. 2016) for this set.

biological target: PIK3CD (Human); assay: Inhibition of PIK3CD Kinase Activity in Pfeiffer Cells
Parameter Measured: IC50

Below: 5 molecules and their reported IC50.
| Molecule | IC50 |
| --- | --- |
| Cc1csc2nc(C(C)Nc3ncnc4[nH]cnc34)c(-c3cc(F)ccc3F)c(=O)n12 (centres undefined) | 50 to 100 nM |
| CCC(Nc1ncnc2[nH]cnc12)c1nc2cccc(C)n2c(=O)c1-c1cn[nH]c1 (centres undefined) | 500 to 1000 nM |
| Cc1cccc2nc(C(C)Nc3nc(N)nc4[nH]cnc34)c(-c3cccc(C#N)c3)c(=O)n12 (centres undefined) | 100 to 500 nM |
| Cc1cccc2nc(C(C)Nc3ncnc4[nH]cnc34)c(-c3ccccc3Cl)c(=O)n12 (centres undefined) | 50 to 100 nM |
| Cc1ccc(-c2c(C(C)Nc3ncnc4[nH]cnc34)nc3cccc(C)n3c2=O)cc1 (centres undefined) | 50 to 100 nM |

Look up and state reported IC50 for Cc1csc2nc(C(C)Nc3ncnc4[nH]cnc34)c(-c3ccc(F)cc3)c(=O)n12 (centres undefined)
100 to 500 nM

Fill in reported IC50 for this entry: Cc1csc2nc(C(C)Nc3nc(N)nc4[nH]cnc34)c(-c3cc(F)cc(Cl)c3)c(=O)n12 (centres undefined)
< 50 nM

Output measured IC50 for this item: Cc1cccc2nc(C(C)Nc3ncnc4[nH]cnc34)c(-c3cccc(F)c3F)c(=O)n12 (centres undefined)
100 to 500 nM

Quick one: give measured IC50 for COc1cccc(-c2c(C(C)Nc3ncnc4[nH]cnc34)nc3cccc(C)n3c2=O)c1 (centres undefined)
50 to 100 nM

---

molecular target: UniProtKB O00329; test: Inhibition of PIK3CD Kinase Activity in Pfeiffer Cells
# IC50 per entry

| Compound | IC50 |
| --- | --- |
| Cc1cccc2nc(C(C)Nc3ncnc4[nH]cnc34)c(-c3cccc(Cl)c3)c(=O)n12 (centres undefined) | 50 to 100 nM |
| Cc1csc2nc(C(C)Nc3nc(N)nc4[nH]cnc34)c(-c3cc(F)cc(F)c3)c(=O)n12 (centres undefined) | < 50 nM |
| CCC(Nc1ncnc2[nH]cnc12)c1nc2cccc(C)n2c(=O)c1-c1cccc(F)c1 (centres undefined) | 100 to 500 nM |

Identify the reported IC50 for the following entry. Cc1cccc2nc(C(C)Nc3nc(N)nc4[nH]cnc34)c(-c3cccc(Cl)c3)c(=O)n12 (centres undefined)
50 to 100 nM

Return IC50 for the following compound: Cc1cccc2nc(C(C)Nc3nc(N)nc4[nH]cnc34)c(-c3ccc(C#N)cc3)c(=O)n12 (centres undefined)
500 to 1000 nM

Quickly give me recorded IC50 for CCc1cccc2nc(C(C)Nc3ncnc4[nH]cnc34)c(-c3ccc(F)cc3)c(=O)n12 (centres undefined)
100 to 500 nM

Give the measured IC50 for Cc1csc2nc(C(C)Nc3ncnc4[nH]cnc34)c(-c3ccccc3F)c(=O)n12 (centres undefined)
50 to 100 nM

Output IC50 of Cc1csc2nc(C(C)Nc3ncnc4[nH]cnc34)c(-c3cc(F)cc(Cl)c3)c(=O)n12 (centres undefined)
50 to 100 nM

Tell me IC50 reported for Cc1cccc2nc(C(C)Nc3ncnc4[nH]cnc34)c(-c3cc(F)ccc3F)c(=O)n12 (centres undefined)
50 to 100 nM

---

biological target: PIK3CD (Human); test: Inhibition of PIK3CD Kinase Activity (Scintillation Proximity Assay)
pIC50: −log10 of the molar value.
The following molecules are shown together with reported pIC50 values.

| Molecule | Reported Measurement |
| --- | --- |
| Cc1csc2nc(C(C)Nc3nc(N)nc4[nH]cnc34)c(-c3cc(F)cc(F)c3)c(=O)n12 (centres undefined) | > 7.30 |
| CCC(Nc1ncnc2[nH]cnc12)c1nc2cccc(C)n2c(=O)c1-c1ccccc1 (centres undefined) | > 7.30 |
| Cc1csc2nc(C(C)Nc3ncnc4[nH]cnc34)c(-c3cncc(F)c3)c(=O)n12 (centres undefined) | 6.30 to 7.00 |

Give a short answer stating reported pIC50 for Cc1csc2nc(C(C)Nc3ncnc4[nH]cnc34)c(-c3cc(F)cc(F)c3)c(=O)n12 (centres undefined) .
> 7.30

---

molecular target: PIK3CD (Human) (UniProt O00329); test: Inhibition of PIK3CD Kinase Activity in Pfeiffer Cells
Sequence (O00329 whole entry, looked up): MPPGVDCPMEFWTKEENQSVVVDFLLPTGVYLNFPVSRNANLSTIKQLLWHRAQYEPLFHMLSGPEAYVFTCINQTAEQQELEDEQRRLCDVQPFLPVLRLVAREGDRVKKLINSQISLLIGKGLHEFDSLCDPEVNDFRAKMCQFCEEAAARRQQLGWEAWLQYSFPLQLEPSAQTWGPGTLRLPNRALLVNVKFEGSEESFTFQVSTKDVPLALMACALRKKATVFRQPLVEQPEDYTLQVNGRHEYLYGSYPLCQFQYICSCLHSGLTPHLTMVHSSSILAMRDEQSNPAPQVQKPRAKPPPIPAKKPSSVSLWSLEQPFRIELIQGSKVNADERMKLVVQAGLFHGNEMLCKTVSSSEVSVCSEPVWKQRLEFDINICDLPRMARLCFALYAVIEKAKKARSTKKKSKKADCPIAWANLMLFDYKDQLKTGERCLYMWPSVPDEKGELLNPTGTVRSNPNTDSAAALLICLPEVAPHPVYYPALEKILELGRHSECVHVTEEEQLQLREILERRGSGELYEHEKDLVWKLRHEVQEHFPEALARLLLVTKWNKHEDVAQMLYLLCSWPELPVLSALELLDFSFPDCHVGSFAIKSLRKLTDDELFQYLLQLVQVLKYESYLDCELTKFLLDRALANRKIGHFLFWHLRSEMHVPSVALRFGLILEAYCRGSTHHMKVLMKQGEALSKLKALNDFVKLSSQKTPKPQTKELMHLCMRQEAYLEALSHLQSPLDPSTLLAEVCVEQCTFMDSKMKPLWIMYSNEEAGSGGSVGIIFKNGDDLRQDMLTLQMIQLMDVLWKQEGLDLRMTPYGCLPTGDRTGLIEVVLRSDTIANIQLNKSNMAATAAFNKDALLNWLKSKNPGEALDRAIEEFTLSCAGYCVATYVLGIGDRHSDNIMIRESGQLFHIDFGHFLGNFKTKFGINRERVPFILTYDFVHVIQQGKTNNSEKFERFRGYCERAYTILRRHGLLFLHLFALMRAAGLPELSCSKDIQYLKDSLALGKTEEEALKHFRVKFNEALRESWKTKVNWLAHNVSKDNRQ
Parameter Measured: IC50

Before answering, review these 3 worked examples.
| Molecule | IC50 |
| --- | --- |
| Cc1cccc2nc(C(C)Nc3ncnc4[nH]cnc34)c(-c3ccc(F)c(F)c3)c(=O)n12 (centres undefined) | 500 to 1000 nM |
| Cc1csc2nc(C(C)Nc3nc(N)nc4[nH]cnc34)c(-c3cccc(Cl)c3)c(=O)n12 (centres undefined) | < 50 nM |
| Cc1cccc2nc(C(C)Nc3ncnc4[nH]cnc34)c(-c3ccccc3F)c(=O)n12 (centres undefined) | 100 to 500 nM |

Dear colleague, please send me the reported IC50 for Cc1cccc(-c2c(C(C)Nc3nc(N)nc4[nH]cnc34)nc3cccc(C)n3c2=O)c1 (centres undefined) when you can.
50 to 100 nM

---

target: UniProtKB O00329; test: Inhibition of PIK3CD Kinase Activity
Parameter Measured: IC50

Please look at this compound and report its IC50: Cc1csc2nc(C(C)Nc3ncnc4[nH]cnc34)c(-c3cc(F)cc(F)c3)c(=O)n12 (stereo unspecified)
< 50 nM

---

molecular target: PIK3CD (Human); assay: Inhibition of PIK3CD Kinase Activity (AlphaScreen Assay)
pIC50: −log10 of the molar value.
Parameter Measured: pIC50

Example entries begin here.
| Molecule | Measured Target | pIC50 |
| --- | --- | --- |
| Cc1csc2nc(C(C)Nc3nc(N)nc4[nH]cnc34)c(-c3ccccc3)c(=O)n12 (stereo not drawn) | PIK3CD (Human) | > 7.30 |
| Cc1cccc2nc(C(C)n3cnc4c(N)ncnc43)c(-c3ccccc3)c(=O)n12 (stereo not drawn) | PIK3CD (Human) | 6.30 to 7.00 |
| Cc1csc2nc(C(C)Nc3ncnc4[nH]cnc34)c(-c3ccccn3)c(=O)n12 (stereo not drawn) | PIK3CD (Human) | 7.00 to 7.30 |
| Cc1csc2nc(C(C)Nc3ncnc4[nH]cnc34)c(-c3cc(F)cc(F)c3)c(=O)n12 (stereo not drawn) | PIK3CD (Human) | > 7.30 |
| CCC(Nc1ncnc2[nH]cnc12)c1nc2cccc(C)n2c(=O)c1-c1cccnc1F (stereo not drawn) | PIK3CD (Human) | 6.30 to 7.00 |
| Cc1csc2nc(C(C)Nc3nc(N)nc4[nH]cnc34)c(-c3cccc(F)c3)c(=O)n12 (stereo not drawn) | PIK3CD (Human) | > 7.30 |

State, in one line, measured pIC50 of Cc1csc2nc(C(C)Nc3nc(N)nc4[nH]cnc34)c(-c3cc(F)cc(F)c3)c(=O)n12 (stereo not drawn)
> 7.30

Could you please provide reported pIC50 for CCC(Nc1ncnc2[nH]cnc12)c1nc2cccc(C)n2c(=O)c1-c1cncc(F)c1 (stereo not drawn) ? Thanks!
6.30 to 7.00

---

Readings of pIC50 for the listed compounds
biological target: PIK3CD (Human); test: Inhibition of PIK3CD Kinase Activity (Scintillation Proximity Assay)
pIC50: −log10 of the molar value.

| Compound | Reported Measurement |
| --- | --- |
| Cc1cccc2nc(C(C)Nc3nc(N)nc4[nH]cnc34)c(-c3ccccc3Cl)c(=O)n12 (centres undefined) | > 7.30 |
| Cc1ccc(-c2c(C(C)Nc3ncnc4[nH]cnc34)nc3scc(C)n3c2=O)cc1 (centres undefined) | 6.30 to 7.00 |
| Cc1csc2nc(C(C)Nc3nc(N)nc4[nH]cnc34)c(-c3ccccc3F)c(=O)n12 (centres undefined) | > 7.30 |
| Cc1csc2nc(C(C)Nc3ncnc4[nH]cnc34)c(-c3ccccc3)c(=O)n12 (centres undefined) | > 7.30 |
| Cc1cccc2nc(C(C)Nc3ncnc4[nH]cnc34)c(-c3cccc(C#N)c3)c(=O)n12 (centres undefined) | 6.30 to 7.00 |

Next up:
Hello, please tell me recorded pIC50 for this one: Cc1csc2nc(C(C)Nc3nc(N)nc4[nH]cnc34)c(-c3cccc(F)c3F)c(=O)n12 (centres undefined)
> 7.30

---

Measured pIC50 values are reported for all entries that follow.
target: PIK3CD (Human); assay: Inhibition of PIK3CD Kinase Activity in Pfeiffer Cells
pIC50: −log10 of the molar value.

Write down pIC50 measured for item Cc1csc2nc(C(C)Nc3ncnc4[nH]cnc34)c(-c3nccs3)c(=O)n12 (centres undefined)
7.00 to 7.30

Output pIC50 of Cc1cccc2nc(C(C)Nc3ncnc4[nH]cnc34)c(-c3ccccc3)c(=O)n12 (centres undefined)
7.00 to 7.30

Return value of pIC50 for input Cc1csc2nc(C(C)Nc3ncnc4[nH]cnc34)c(-c3cc(F)cc(F)c3)c(=O)n12 (centres undefined) , no commentary.
6.30 to 7.00

Determine from records and report pIC50 for Cc1cccc2nc(C(C)Nc3nc(N)nc4[nH]cnc34)c(-c3ccccc3F)c(=O)n12 (centres undefined)
7.00 to 7.30
